- Target or test system: C-X-C chemokine receptor type 4 (Homo sapiens) (UniProt P61073)
- Sequence (P61073 whole entry): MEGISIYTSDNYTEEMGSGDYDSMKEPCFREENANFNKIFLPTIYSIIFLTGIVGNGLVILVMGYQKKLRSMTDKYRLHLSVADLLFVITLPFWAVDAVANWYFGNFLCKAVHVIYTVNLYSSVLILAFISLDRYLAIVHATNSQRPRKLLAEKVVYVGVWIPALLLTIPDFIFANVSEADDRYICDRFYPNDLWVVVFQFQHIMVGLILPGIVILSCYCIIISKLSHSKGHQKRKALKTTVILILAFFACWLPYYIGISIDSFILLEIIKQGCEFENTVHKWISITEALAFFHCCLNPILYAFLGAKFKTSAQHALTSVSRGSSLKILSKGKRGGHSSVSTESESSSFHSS
- Method: Competitive inhibition of biotinylated TN14003 binding to CXCR4 in human MDA-MB-231 cells preincubated for 10 mins followed by biotinylated-TN14003 addition measured after 30 mins by streptavidin-rhodamine staining based fluorescence microscopic analysis
- Type: cell-based
Reported property: EC (nM)

Solved entries:
O=C(NCc1ccc(CNS(=O)(=O)c2ccc(CN3CCOCC3)cc2)cc1)c1ccc(F)cc1; 10
O=C(NCc1ccc(CNS(=O)(=O)c2ccccc2Cl)cc1)c1ccc(F)cc1; 1000
Cc1ccccc1S(=O)(=O)NCc1ccc(CNC(=O)c2ccc(F)cc2)cc1; 100

[P] O=C(NCc1ccc(CNS(=O)(=O)c2cccnc2)cc1)c1ccc(F)cc1
[Q] O=C(NCc1ccc(CNS(=O)(=O)c2ccc(Cl)cc2)cc1)c1ccc(F)cc1
Consider P and Q . Which of these has its EC at a higher number? Use the label to indicate which entry you chose.
P
